Entries and their measured pIC50 follow.
Biological target: ORP1 (Homo sapiens, UniProt Q9BXW6)
Sequence (Q9BXW6 534-950): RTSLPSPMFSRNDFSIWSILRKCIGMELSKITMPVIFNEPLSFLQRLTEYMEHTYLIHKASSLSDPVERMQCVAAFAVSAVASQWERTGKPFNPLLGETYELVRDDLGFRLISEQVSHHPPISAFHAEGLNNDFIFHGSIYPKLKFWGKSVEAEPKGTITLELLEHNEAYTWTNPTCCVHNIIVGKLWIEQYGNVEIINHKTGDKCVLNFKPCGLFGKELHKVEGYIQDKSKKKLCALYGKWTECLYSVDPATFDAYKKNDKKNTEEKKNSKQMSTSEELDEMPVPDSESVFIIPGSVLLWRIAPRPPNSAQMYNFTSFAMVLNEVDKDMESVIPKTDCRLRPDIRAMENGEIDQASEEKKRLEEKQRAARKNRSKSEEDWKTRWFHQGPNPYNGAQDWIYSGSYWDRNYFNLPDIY
pIC50: −log10 of the molar value.

Consider the reported pIC50 for these molecules:
[
  {
    "MOLECULE": "CC12CCC3CC1CCC21C(=Nc2ccc(N4CCOCC4)cc21)O3 (racemic) [Compound 19a]",
    "READOUT LABEL": "pIC50",
    "OBSERVED VALUE": "< 4.10"
  },
  {
    "MOLECULE": "C[C@]12CC[C@@H]3C[C@H]1CC[C@@]21C(=Nc2ccc(N4CCN(Cc5ccncc5)CC4)cc21)O3 [Compound 24]",
    "READOUT LABEL": "pIC50",
    "OBSERVED VALUE": "< 4.30"
  },
  {
    "MOLECULE": "CC12CCC3CC1CCC21C(=Nc2c(Br)cc(C(F)(F)F)cc21)O3 (stereo not shown) [Compound 15h]",
    "READOUT LABEL": "pIC50",
    "OBSERVED VALUE": "< 4.10"
  },
  {
    "MOLECULE": "CC12CCC3CC1CCC21C(=Nc2ccc(N4CCOCC4)cc21)O3 (single isomer, unassigned; (+)) [(+)-19a]",
    "READOUT LABEL": "pIC50",
    "OBSERVED VALUE": "< 4.10"
  },
  {
    "MOLECULE": "CC12CCC3CC1CCC21C(=Nc2ccc(N4CCOCC4)cc21)O3 (single isomer, unassigned; (-)) [(−)-19a]",
    "READOUT LABEL": "pIC50",
    "OBSERVED VALUE": "< 4.30"
  },
  {
    "MOLECULE": "CCCCCNc1ccc2c(c1)[C@@]13CC[C@@H]4C[C@@H](CC[C@@]41C)OC3=N2 [Compound 19c]",
    "READOUT LABEL": "pIC50",
    "OBSERVED VALUE": "< 4.10"
  }
]

Read the next record carefully.
## Task Please report pIC50 for the following molecule: CC12CCC3CC1CCC21C(=Nc2ccc(Br)cc21)O3 (single isomer, unassigned; (+)) [(+)-15b]
## Result < 4.10

====

Entries and their measured STARD3 (DSF) ΔTm follow.
Target: STARD3 (Homo sapiens, UniProt Q14849)
Construct: STARD3(216-444); made in house; host or cells: E. coli BL21(DE3)
Sequence (Q14849 216-444): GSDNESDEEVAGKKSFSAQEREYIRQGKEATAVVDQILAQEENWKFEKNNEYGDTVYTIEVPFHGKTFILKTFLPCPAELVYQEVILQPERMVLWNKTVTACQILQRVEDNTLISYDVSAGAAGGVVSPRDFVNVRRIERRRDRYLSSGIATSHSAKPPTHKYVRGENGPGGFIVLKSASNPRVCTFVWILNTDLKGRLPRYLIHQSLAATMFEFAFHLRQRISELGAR
Test: Differential scanning fluorimetry (DSF), STARD3
Type: binding
Conditions: single dose, Dose = 10 µM
Source text: Protein expression constructs Human ASTER domains of Aster-A(359-547), -B(364-552) and -C(318-504) were subcloned into a pGEX-6p-2rbs vector, thus introducing the cloning artifact ‘GPLGS’.3 The pGEX-6P-1-GST-OSBP(377- […] a gift from James H. Hurley (University of California).4 The pHIS_2His6_Thrombin_STARD4(2-205;C75S) plasmid was a gift from Young Jun Im (Chonnam National University).5 STARD5A was a gift from Nicola Burgess-Brown (Addgene plasmid #42392; http://n2t.net/addgene:42392; […]
Value expressed in °C; do not type the unit.

## Task Please report STARD3 (DSF) ΔTm for the following compound: C[C@]12CC[C@@H](O)C[C@H]1CCc1nc3cc(Cl)c(Cl)cc3nc12 [Compound 7d]
## Result -0.1

## Task Please report STARD3 (DSF) ΔTm for the following compound: CCCCCN(c1ccc2c(c1)[C@@]13CC[C@@H]4C[C@@H](CC[C@@]41C)OC3=N2)c1ccc2c(c1)[C@@]13CC[C@@H]4C[C@@H](CC[C@@]41C)OC3=N2 [Compound 20b]
## Result -0.0839

## Task Please report STARD3 (DSF) ΔTm for the following compound: C[C@]12CC[C@@H](O)C[C@H]1CCc1c2[nH]c2ccc(F)cc12 [Compound 10d]
## Result -0.115

## Task Please report STARD3 (DSF) ΔTm for the following compound: C[C@]12CC[C@@H](O)C[C@H]1CCc1c2[nH]c2ccc(I)cc12 [Compound 10h]
## Result 0.1

## Task Please report STARD3 (DSF) ΔTm for the following compound: C[C@]12CC[C@@H](O)C[C@H]1CCc1c2[nH]c2ccccc12 [Compound 10a]
## Result -0.188

## Task Please report STARD3 (DSF) ΔTm for the following compound: Cc1nc2c(s1)CC[C@@H]1C[C@H](O)CC[C@]21C [Compound 8b]
## Result 0.0139

## Task Please report STARD3 (DSF) ΔTm for the following compound: C[C@]12CC[C@@H](O)C[C@H]1CCc1sc(-c3cccnc3)nc12 [Compound 8c]
## Result 0.345

## Task Please report STARD3 (DSF) ΔTm for the following compound: C[C@]12CC[C@@H](O)C[C@H]1CCc1c2nc2ccc(Cl)cc2c1-c1ccccc1 [Compound 2e]
## Result -0.1

## Task Please report STARD3 (DSF) ΔTm for the following compound: Cc1c2c(nc3cc(Br)ccc13)[C@@]1(C)CC[C@@H](O)C[C@H]1CC2 [Compound 2c]
## Result -0.168

## Task Please report STARD3 (DSF) ΔTm for the following compound: CC(C)Oc1ccc(C(=O)Nc2nc3c(s2)CN(C(=O)OC(C)(C)C)CC3)cc1 [Autogramin-2, reference compound]
## Result 0.027

====

Target: STARD4 (Homo sapiens, UniProt Q96DR4, C75S)
Construct: STARD4(2-205; C75S); made in house; host or cells: E. coli BL21(DE3)
Sequence (Q96DR4 2-205 C75S): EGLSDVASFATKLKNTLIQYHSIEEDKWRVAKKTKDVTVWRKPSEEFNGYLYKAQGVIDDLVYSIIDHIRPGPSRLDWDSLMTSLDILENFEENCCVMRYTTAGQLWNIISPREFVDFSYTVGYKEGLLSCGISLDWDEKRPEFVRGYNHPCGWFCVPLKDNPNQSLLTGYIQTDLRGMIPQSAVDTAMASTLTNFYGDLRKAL
Test: Differential scanning fluorimetry (DSF), STARD4
Format: binding
Conditions: single dose, Dose = 10 µM
Entries and their measured ΔTm at 10 µM follow.
Value expressed in °C; do not type the unit.

## Task Please report ΔTm at 10 µM for the following molecule: C[C@]12CC[C@@H]3C[C@H]1CC[C@@]21C(=Nc2ccc(F)cc21)O3 [Compound 15d]
## Result 1.3

## Task Please report ΔTm at 10 µM for the following molecule: C[C@]12CC[C@@H]3C[C@H]1CC[C@@]21C(=Nc2c(F)cc(Cl)cc21)O3 [Compound 15i]
## Result 1

## Task Please report ΔTm at 10 µM for the following molecule: COc1ccc2[nH]c3c(c2c1)CC[C@@H]1C[C@H](O)CC[C@]31C [Compound 10f]
## Result 0.0284

## Task Please report ΔTm at 10 µM for the following molecule: C[C@]12CC[C@@H]3C[C@H]1CC[C@@]21C(=Nc2ccc(N4CCN(Cc5ccncc5)CC4)cc21)O3
## Result 3

## Task Please report ΔTm at 10 µM for the following molecule: Cc1ccc2[nH]c3c(c2c1)CC[C@@H]1C[C@H](O)CC[C@]31C [Compound 10e]
## Result 0.284

## Task Please report ΔTm at 10 µM for the following molecule: C[C@]12CC[C@@H]3C[C@H]1CC[C@@]21C(=Nc2ccc(C(F)(F)F)cc21)O3 [Compound 15g]
## Result 1

## Task Please report ΔTm at 10 µM for the following molecule: Cc1ccc2[nH]c3c(c(=O)c2c1)C[C@@H]1C[C@H](O)CC[C@]31C
## Result -0.0238

## Task Please report ΔTm at 10 µM for the following molecule: Cc1cc2nc3c(nc2cc1C)[C@@]1(C)CC[C@@H](O)C[C@H]1CC3
## Result 0.27

## Task Please report ΔTm at 10 µM for the following molecule: CCCCCNc1ccc2c(c1)[C@@]13CC[C@@H]4C[C@@H](CC[C@@]41C)OC3=N2 [Compound 19c]
## Result 4.5

====

Entries and their measured STARD1 (FP) inhibition follow.
Target: STARD1 (Homo sapiens)
Construct: STARD1(66-284); made in house; host or cells: E. coli BL21(DE3)
Sequence (P49675 66-284): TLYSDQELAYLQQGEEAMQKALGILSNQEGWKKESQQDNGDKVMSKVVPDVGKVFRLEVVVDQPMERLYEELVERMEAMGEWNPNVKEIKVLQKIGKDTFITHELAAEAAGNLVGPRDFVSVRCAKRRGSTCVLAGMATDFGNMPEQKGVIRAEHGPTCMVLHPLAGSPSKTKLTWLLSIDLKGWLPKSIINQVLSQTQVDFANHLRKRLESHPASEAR
Assay: Fluorescence polarisation (FP) competition with NBD-cholesterol, STARD1
Assay type: binding
Settings: single dose, Dose = 10 µM
Value expressed in %; do not type the unit.

Consider the reported STARD1 (FP) inhibition for these compounds:
[
  {
    "COMPOUND": "C[C@]12CC[C@@H](O)C[C@H]1CCC(=O)c1cc(Cl)cc(F)c1NC2=O [Compound 11f]",
    "TESTED SYSTEM": "STARD1 (Homo sapiens)",
    "STARD1 (FP) inhibition / %": -3.33
  },
  {
    "COMPOUND": "CC12CCC3CC1CCC21C(=Nc2ccc(N4CCOCC4)cc21)O3 (single isomer, unassigned; (+)) [(+)-19a]",
    "TESTED SYSTEM": "STARD1 (Homo sapiens)",
    "STARD1 (FP) inhibition / %": 12
  },
  {
    "COMPOUND": "CC(C)Oc1ccc(C(=O)Nc2nc3c(s2)CN(C(=O)OC(C)(C)C)CC3)cc1 [Autogramin-2, reference compound]",
    "TESTED SYSTEM": "STARD1 (Homo sapiens)",
    "STARD1 (FP) inhibition / %": 22
  },
  {
    "COMPOUND": "C[C@]12CC[C@@H](O)C[C@H]1CCc1c2[nH]c2ccc(Br)cc12 [Compound 10b]",
    "TESTED SYSTEM": "STARD1 (Homo sapiens)",
    "STARD1 (FP) inhibition / %": -23
  },
  {
    "COMPOUND": "C[C@]12CC[C@@H](O)C[C@H]1CCC(=O)c1ccccc1NC2=O [Compound 11a]",
    "TESTED SYSTEM": "STARD1 (Homo sapiens)",
    "STARD1 (FP) inhibition / %": 7
  }
]

## Task Output reported STARD1 (FP) inhibition of the compound C[C@]12CC[C@@H](O)C[C@H]1CCc1nc3cc(Br)c(Br)cc3nc12 on STARD1 (Homo sapiens).
## Result 13

## Task Output reported STARD1 (FP) inhibition of the compound C[C@]12CC[C@@H](O)C[C@H]1CCc1c2[nH]c2ccccc12 [Compound 10a] on STARD1 (Homo sapiens).
## Result 35

## Task Output reported STARD1 (FP) inhibition of the compound C[C@]12CC[C@@H](O)C[C@H]1CCc1sc(-c3cccnc3)nc12 on STARD1 (Homo sapiens).
## Result -1.67

## Task Output reported STARD1 (FP) inhibition of the compound C[C@]12CC[C@@H](O)C[C@H]1CCC[C@]21Nc2ccccc2-n2cccc21 on STARD1 (Homo sapiens).
## Result 20

## Task Output reported STARD1 (FP) inhibition of the compound Cc1c2c(nc3cc(Br)ccc13)[C@@]1(C)CC[C@@H](O)C[C@H]1CC2 on STARD1 (Homo sapiens).
## Result 70

## Task Output reported STARD1 (FP) inhibition of the compound CCCCCN(c1ccc2c(c1)[C@@]13CC[C@@H]4C[C@@H](CC[C@@]41C)OC3=N2)c1ccc2c(c1)[C@@]13CC[C@@H]4C[C@@H](CC[C@@]41C)OC3=N2 [Compound 20b] on STARD1 (Homo sapiens).
## Result -18
